Assay type: physicochemical
details: SGF with pepsin, pH 1.5, 37° C., 0.5 mM; time 5 min
In this section we review reported Condition 1 Conversion (%) values for a set of compounds.
Record the result as a number with its unit.

compound	Condition 1 Conversion (%)
COc1ccc([C@@]23CC/C(=N\NC(=O)Nc4ccccc4Cl)C[C@@H]2N(C)CC3)cc1OC [Compound 249]	70.48%
COc1ccc([C@@]23CC/C(=N\NC(=O)C4(C(=O)O)CC4)C[C@@H]2N(C)CC3)cc1OC [Compound 243]	100%
COc1ccc([C@@]23CCC(=NNC(=O)COc4ccccc4)C[C@@H]2N(C)CC3)cc1OC [Compound 223]	100%
COc1ccc([C@@]23CCC(=NNc4cnccn4)C[C@@H]2N(C)CC3)cc1OC [Compound 365]	8.9%

Okay, next one:
q: Which Condition 1 Conversion (%) is reported for this compound? COc1ccc([C@]23CCN(C)[C@H]2CC(OC)(OC)CC3)cc1OC (stereo in doubt) [Compound 190]
a: 8.30%

====

As shown below, each of these compounds has a reported Condition 1 Conversion (%) value.
Assay type: physicochemical
details: SGF with pepsin, pH 1.5, 37° C., 0.5 mM; time 1 h
Enter the number, and then the unit.

These recorded examples may help you get a feel for the data.
compound	reported_measurement
COc1ccc([C@]23CCN(C)[C@H]2CC(OC)(OC)CC3)cc1OC (stereo in doubt) [Compound 190]	100%
COc1ccc([C@]23CCN(C)[C@H]2CC2(CC3)OCCO2)cc1OC [Compound 043]	0%
COc1ccc([C@@]23CCC(=NNc4ccc(F)cc4)C[C@@H]2N(C)CC3)cc1OC [Compound 361]	100%

Now turn to the next compound.
q: Request the reported Condition 1 Conversion (%) associated with COc1ccc([C@@]23CCC(=NOCCON=C4CC[C@@]5(c6ccc(OC)c(OC)c6)CCN(C)[C@H]5C4)C[C@@H]2N(C)CC3)cc1OC [Compound 210]
a: 7.51%

====

The following compounds are shown together with reported Prodrug (%) remaining, Rat Plasma values.
details: 2 h, 10 μM
Field: numeric (%). Do not append units.

Observe how each entry below is paired with its result.
compound	Prodrug (%) remaining, Rat Plasma
COCCOCCC(=O)OC1=C[C@@H]2N(C)CC[C@]2(c2ccc(OC)c(OC)c2)CC1	0.0
COc1ccc([C@@]23CCC(OC(=O)CCC(C)C)=C[C@@H]2N(C)CC3)cc1OC	0.0
COc1ccc([C@@]23CCC(OC(=O)CC(C)(C)C)=C[C@@H]2N(C)CC3)cc1OC	2.3
CCCC(CCC)C(=O)OC1=C[C@@H]2N(C)CC[C@]2(c2ccc(OC)c(OC)c2)CC1	16.0
COc1ccc([C@@]23CCC(OC(=O)c4c(C)cccc4C)=C[C@@H]2N(C)CC3)cc1OC	98.4
CCC(CC)C(=O)OC1=C[C@@H]2N(C)CC[C@]2(c2ccc(OC)c(OC)c2)CC1	0.9

q: # input compound: CCC(C)C(=O)OC1=C[C@@H]2N(C)CC[C@]2(c2ccc(OC)c(OC)c2)CC1 (some centres unmarked) ; wanted: its Prodrug (%) remaining, Rat Plasma
a: 0.0

q: Repeat with CCCC(CC)CC(=O)OC1=C[C@@H]2N(C)CC[C@]2(c2ccc(OC)c(OC)c2)CC1 (some centres unmarked)
a: 0.0

q: Can you handle COc1ccc([C@@]23CCC(OC(=O)c4ccc(C(C)C)cc4)=C[C@@H]2N(C)CC3)cc1OC next?
a: 0.0

q: Query CCCC(C)C(=O)OC1=C[C@@H]2N(C)CC[C@]2(c2ccc(OC)c(OC)c2)CC1 (some centres unmarked) next
a: 0.0

q: Please answer likewise for CCCCCCCC(=O)OC1=C[C@@H]2N(C)CC[C@]2(c2ccc(OC)c(OC)c2)CC1
a: 0.1

q: Can you handle CCCCCC(C)C(=O)OC1=C[C@@H]2N(C)CC[C@]2(c2ccc(OC)c(OC)c2)CC1 (some centres unmarked) next?
a: 0.1

q: Also need COc1ccc([C@@]23CCC(OC(=O)c4cccc(C)c4C)=C[C@@H]2N(C)CC3)cc1OC , thanks.
a: 5.2

q: Follow-up item: COc1ccc([C@@]23CCC(OC(=O)CCN)=C[C@@H]2N(C)CC3)cc1OC
a: 0.1

====

experimental_protocol: Plasma Stability Assay of Example A3, human plasma
details: 15 min; 5 μM, 37° C.; % of prodrug compound remaining
Met if Human Plasma Prodrug (%) is below 90%. Not met if not; exact matches included in Not met.

Check out these entries, answers already filled in.
compound	class
COc1ccc([C@@]23CCC(OC(=O)c4cccc(C(C)(C)C)c4)=C[C@@H]2N(C)CC3)cc1OC	Not met
COc1ccc([C@@]23CCC(OC(=O)c4cccc(C)c4)=C[C@@H]2N(C)CC3)cc1OC	Not met
C/C=C(\C)C(=O)OC1=C[C@@H]2N(C)CC[C@]2(c2ccc(OC)c(OC)c2)CC1	Met
COc1ccc([C@@]23CCC(OC(=O)c4c(C)cccc4C)=C[C@@H]2N(C)CC3)cc1OC	Not met
COc1ccc([C@@]23CCC(OC(=O)c4ccc(N(C)C)cc4)=C[C@@H]2N(C)CC3)cc1OC	Not met

q: Find out if reported Human Plasma Prodrug (%) for COc1ccc([C@@]23CCC(OC(=O)C4CC4)=C[C@@H]2N(C)CC3)cc1OC is less than 90%
a: Met

q: Next compound: COc1ccc([C@@]23CCC(=O)C[C@@H]2N(C)CC3)cc1OC [Compound 001, mesembrine, reference compound]
a: Not met

q: Please answer likewise for COc1ccc([C@@]23CCC(OC(=O)c4cccc(C)c4C)=C[C@@H]2N(C)CC3)cc1OC
a: Not met

====

details: 0 min, 5 μM
Mark YES for Mouse Plasma Compound 001 (%) under 40%, NO if at or over.

Consider the following illustrative entries.
COc1ccc([C@@]23CCC(OC(=O)c4ccc(C(C)C)cc4)=C[C@@H]2N(C)CC3)cc1OC YES
COc1ccc([C@@]23CCC(OC(=O)c4c(C)cccc4C)=C[C@@H]2N(C)CC3)cc1OC YES
COc1ccc([C@@]23CCC(OC(=O)c4ccc(C#N)cc4)=C[C@@H]2N(C)CC3)cc1OC YES
COc1ccc([C@@]23CCC(OC(=O)c4ccc(F)cc4)=C[C@@H]2N(C)CC3)cc1OC NO

q: In the record for COc1ccc([C@@]23CCC(OC(=O)c4cccc(C(C)(C)C)c4)=C[C@@H]2N(C)CC3)cc1OC , is Mouse Plasma Compound 001 (%) less than 40%?
a: NO

====

Assay type: physicochemical
details: SGF with pepsin, pH 1.5, 37° C., 0.5 mM; time 30 min
assay_endpoint: Condition 1 Conversion (%)
Give just the numeric value; % need not be written.

In the examples that follow, each entry is paired with its recorded Condition 1 Conversion (%).
compound	assay_endpoint	reported_measurement
COc1ccc([C@@]23CCC(=NNC(=O)c4ccncc4)C[C@@H]2N(C)CC3)cc1OC	Condition 1 Conversion (%)	100
COc1ccc([C@@]23CCC(=NNC(=O)Nc4ccc(C(=O)O)cc4)C[C@@H]2N(C)CC3)cc1OC (racemic)	Condition 1 Conversion (%)	16.5
COc1ccc([C@@]23CCC(=NNCc4cccc(C)c4)C[C@@H]2N(C)CC3)cc1OC	Condition 1 Conversion (%)	100

q: Look at this compound and give its reported Condition 1 Conversion (%). COc1ccc([C@]23CCN(C)[C@H]2CC2(CC3)OCCO2)cc1OC
a: 0

====

Assay type: physicochemical
details: DI water, 25° C., 0.5 mM; time 5 min
assay_endpoint: Condition 2 Conversion (%)
A number alone suffices; assume %.

Sample answers from the record:
COc1ccc([C@@]23CCC(=NNc4ccc(F)cc4)C[C@@H]2N(C)CC3)cc1OC 0
COc1ccc([C@@]23CCC(=NNc4cnccn4)C[C@@H]2N(C)CC3)cc1OC 0
COc1ccc([C@@]23CC/C(=N\NC(=O)NCCc4cccs4)C[C@@H]2N(C)CC3)cc1OC 0
COc1ccc([C@@]23CC/C(=N\NC(=O)NC[C@H]4CC[C@H](C(=O)O)CC4)C[C@@H]2N(C)CC3)cc1OC 0
COc1ccc([C@@]23CCC(=NNC(=O)C45CC6CC(CC(C6)C4)C5)C[C@@H]2N(C)CC3)cc1OC 70.3

Then this molecule:
q: Would you kindly share the measured Condition 2 Conversion (%) for COc1ccc([C@@]23CCC(=NOCCOc4ccccc4)C[C@@H]2N(C)CC3)cc1OC ?
a: 0

====

Type: physicochemical
details: DI water, 25° C., 0.5 mM; time 4 h
Reported Condition 2 Conversion (%) values for the following molecules.

q: Field request: Condition 2 Conversion (%) | item: COc1ccc([C@@]23CCC(=NNC(=O)Nc4ccc(S(C)(=O)=O)cc4)C[C@@H]2N(C)CC3)cc1OC
a: 8.4%

q: Another: COc1ccc([C@@]23CCC(OC(=O)CC(C)C)=C[C@@H]2N(C)CC3)cc1OC
a: 0%

q: Also, COc1ccc([C@@]23CCC(=NOCCC45CC6CC(CC(C6)C4)C5)C[C@@H]2N(C)CC3)cc1OC please.
a: 0%

q: Okay, and COc1ccc([C@@]23CCC(=NNCc4cccnc4)C[C@@H]2N(C)CC3)cc1OC ?
a: 30%

Values compiled from patent US20250051277A1.
